- studySystem: T1, RSV F ectodomain stabilized in the postfusion conformation (F ΔFP), subtype B (Respiratory syncytial virus subtype B, UniProt P13843 26-109; P13843 147-524)
- T1 construct: extracellular domain; trimer; also called Postfusion subtype B; postF subtype B
- experimentalProtocol: BLI, IgG on AHQ sensor, 100 nM antigen
Catalogue of Kd values
Could you give me the number in nM? Just the number is fine.

[Q] In one line, give reported Kd of the entry ADI-14513 (antibody, V domains shown, full-length IgG (yeast-expressed); also called Antibody Number 74; Ab# 74) VH: QVQLVQSGSEVKRPGSSVKVSCKASGVALTTVAVNWVRQVPGQGPEWIGGILIGFGKVRQAQKFENRVTFTADASRNTAYMELSGLRSEDTAVYYCAIIDPQDCTRASCFWVNWLAPWGHGTLVTVSS VL: DIRVTQSPGTLTLSPGERASLSCRASESILNGNLAWYQQKPGQAPRLLIYAASSRATDIPDRFSGSGSGTDFTLTISRLEPQDFAVYYCQQYGSAPITFGQGTRLEIK .
[A] 0.962

[Q] In one line, give reported Kd of the entry ADI-14470 (antibody, V domains shown, full-length IgG (yeast-expressed); also called Antibody Number 33; Ab# 33) VH: QVTLKESGPALVKPTETLTLTCTFSGFSLSTKRLSVSWIRQPPGKALEWLARIDWDDDKSYSTSLRTRLTIAKDTSKNQVVLTMTNMGPADTATYFCVRSSVYASNAYYLYYFDSWGQGTLVTVSS VL: DIRMTQSPSSLSASVGDRVTITCRASQSIATYLNWYQHKPGKAPTLLIYAASILHSGVPPRFSGRASGTDFTLTISSLQPEDFATYYCQQAYSSPYTFGQGTKVDIK .
[A] 0.314

[Q] In one line, give reported Kd of the entry ADI-14525 (antibody, V domains shown, full-length IgG (yeast-expressed); also called Antibody Number 85; Ab# 85) VH: EVQLLESGGGVVQPGRSLRLSCTASGFTFSDHAMYWVRQAPGKGLEWVALISFDGRNIYYADSVKGRFTISRDNSKNTLYLQMNSLRAEDTAVYYCARDQWLVPDYWGQGTLVTVSS VL: QSVLIQPASVSGSPGQSITISCTGTSSDVGGYNYVSWYQQHPGNAPKLMIYEVSKRPSGVPDRFSGFKSGNTASLTVSGLQAEDEADYYCSSYAGSNSVFGTGTQLTVL .
[A] 0.149
